// data source = patent US11844813

The reader will find reported Kd values listed item by item below.
biological target: Human His-tagged RBP4 (residues 19-201), soluble (human, UniProt P02753 19-201); assay: SPR, + A1120; mean ± S.D., n=4

BINDER: RS5, rcSso7d-based RBP4 binding interaction partner, soluble protein (designed binder, Expressed in E. coli as His6-SUMO fusion; Monomeric by SEC) ATVKFTYQGEEKQVDISKIKRVARYGQGIYFDYGEGGGAWGYGSVSEEDAPKELLQMLEKQ
UNITS LABEL: nM
Kd: 38
//
BINDER: RS3, rcSso7d-based RBP4 binding interaction partner, soluble protein (designed binder, Expressed in E. coli as His6-SUMO fusion; Monomeric by SEC) ATVKLTYQGEEKQVDISKIKRVARYGQNIYFSYDEGGGAYDYGAVSEKDAPKELLQMLEKQ
UNITS LABEL: nM
Kd: 9
